Consider the following IC50 data for Prothrombin (Homo sapiens), collected from several reports.

-- ask Please indicate IC50 recorded for O=C(c1ccccc1)n1nc(NCc2ccc(Cl)s2)c(F)c1C1CCOCC1
-- reply > 1 µM

-- ask Please indicate IC50 recorded for COC1CCCCC1c1n[nH]c(N)n1 (stereo not shown)
-- reply ≥ 100 µM

-- ask Please indicate IC50 recorded for COCC(C)(C)C(=O)n1nc(-c2ccccc2)c(F)c1NCc1ccc(Cl)s1
-- reply < 0.1 µM

-- ask Please indicate IC50 recorded for Clc1ccc(CNc2cc(C3CCN(Cc4ncno4)CC3)n[nH]2)s1
-- reply > 100 µM

-- ask Please indicate IC50 recorded for Cc1nc(CN(CCc2ccc(C(C)C)cc2OCC(=O)O)S(=O)(=O)c2cc(C(=N)N)ccc2O)cs1
-- reply > 100 µM

-- ask Please indicate IC50 recorded for Cc1c(C2CCN(C(=O)OC(C)(C)C)CC2)n[nH]c1NCc1ccc(Cl)s1
-- reply > 100 µM

-- ask Please indicate IC50 recorded for CN(C)S(=O)(=O)N1CCC(c2cc(NCc3ccc(Cl)s3)n(C(=O)C(C)(C)C)n2)CC1
-- reply 0.1 to 1 µM

-- ask Please indicate IC50 recorded for NCCCCCNC(=O)Cn1c(=O)c(NS(=O)(=O)Cc2ccccc2)cc2ccccc21
-- reply > 30 µM

-- ask Please indicate IC50 recorded for Nc1ccc(CNC(=O)[C@H](Cc2cccc(C(F)(F)F)c2)NC(=O)c2ccc[nH]2)cn1
-- reply > 10 µM

-- ask Please indicate IC50 recorded for COc1ccccc1C(=O)n1nc(C2(C)CCCN2C(=O)OC(C)(C)C)cc1NCc1ccc(Cl)s1 (stereo not shown)
-- reply 1 to 10 µM

-- ask Please indicate IC50 recorded for Cc1c(C2CCNCC2)nn(C(=O)C(C)(C)C)c1NCc1ccc(Cl)s1
-- reply 1 to 10 µM

-- ask Please indicate IC50 recorded for O=C(c1cccc2c1OCCO2)n1nc(C2CNC2)nc1NCc1ccc(Cl)s1
-- reply ≤ 0.1 µM

-- ask Please indicate IC50 recorded for CC(C)(C)C(=O)n1nc(-c2ccccc2)c(F)c1NCc1ccccc1
-- reply < 0.1 µM

-- ask Please indicate IC50 recorded for C=CCOC(=O)N1CC(c2cc(NCc3ccc(Cl)s3)[nH]n2)C1
-- reply 10 to 100 µM

-- ask Please indicate IC50 recorded for C=CCOC(=O)N1CCCC(c2cc(NCc3ccc(Cl)s3)n(C(=O)c3cscn3)n2)CC1 (stereo not shown)
-- reply < 0.1 µM

-- ask Please indicate IC50 recorded for O=C(c1ccsc1)n1nc(C2CCOC2)nc1NCc1ccc(Cl)s1 (stereo not shown)
-- reply ≤ 0.1 µM
